List of apparent KD of K4 kissing-loop reporter values.
Test system: K4 kissing-loop RNA reporter;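 also: bound reporter read as fluorescence of individual clusters on recovered sequencing chips by microscopy, with normalized cluster intensities fitted with a binding model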
Test: apparent KD of K4 kissing-loop reporter; higher = weaker reporter binding
Conditions: Eterna round: R107; input ligand: FMN 200 uM
Give the quantity in nM, number only.

Illustrative cases are given below, each with its answer.
monomer_sequence="AAGGUAUCACCACAACAUCACUAAGGUGAUACCAGCAUCGAAAGAUGCCCUUGGCAGCACCAACUUGCAGUGAUGUUGCAAGUAA [(T)'-(H)'-(T1)-(T2)-(H1)-(H2)_Design9]" property_name="apparent KD of K4 kissing-loop reporter" meas_value=417
monomer_sequence="GAGAUAGAGGCGGCCGCCACUAGUGAUGUUGGUGAUGUUAGAUAGAGAAUAGAACGGGUACUCCCUAGGACCGGGCCAGAUGGAG [#04 K4 Tryptophan B Exclusion]" property_name="apparent KD of K4 kissing-loop reporter" meas_value=63.8

// moving on: another record for apparent KD of K4 kissing-loop reporter
For reference, reported apparent KD of K4 kissing-loop reporter for AGACCUCAGUGAUGUUGAGGUAACGCUGAUACCAGUGACUUAAUUCACCCUUGGCAGCAGUCCACCAAGGUAUCUGAUUAGGUCU [Theo A Ex t5] stands at 153
